target: HLA-B*15:02; assay: IEDB peptide-MHC binding, purified MHC/competitive/fluorescence; filed as Kd, often an IC50 or EC50 that approximates it; bounds were set here for any values at or beyond the usual limits of such assays; conditions: source organism: Shigella boydii CDC 3083-94
endpoint: Kd

QUERY: Suppose we examine the sequence FMAAFYRVM ; what Kd value has been reported?
RESULT: 18.3 nM

---

biological target: HLA-A*03:01; test: IEDB peptide-MHC binding, purified MHC/competitive/radioactivity; filed as Kd, often an IC50 or EC50 that approximates it; bounds were set here for any values at or beyond the usual limits of such assays; details: source organism: Dengue virus 2 Jamaica/1409/1983
endpoint: pKd
The read-out pKd is expressed as -log10 of concentration in moles per litre.

QUERY: Which pKd is reported with HLA-A*03:01 for this entry: LLLTSSQQK ?
RESULT: 7.81

---

target: HLA-A*26:03; assay: IEDB peptide-MHC binding, purified MHC/direct/fluorescence; filed as Kd, often an IC50 or EC50 that approximates it; bounds were set here for any values at or beyond the usual limits of such assays; conditions: source organism: Bacillus cereus 03BB108
pKd: −log10 of the molar value.
endpoint: pKd

QUERY: Give its pKd value. Item: KVQEWYLSY
RESULT: ≤ 4.70

---

target: HLA-A*02:01; assay: IEDB peptide-MHC binding, purified MHC/competitive/fluorescence; bounds were set here for any values at or beyond the usual limits of such assays; conditions: source organism: Variola virus
endpoint: pIC50
Formally, pIC50 is defined as -log10 of the concentration c, with c in mol/L.

> print(dat)
   primary.sequence  endpoint.result
1         FNYLFGGFS             4.29

Now consider the entry below.
QUERY: Value lookup for pIC50; key = IDSMFLMTA
RESULT: 4.54

---

target: HLA-A*01:01; assay: IEDB peptide-MHC binding, purified MHC/competitive/fluorescence; filed as Kd, often an IC50 or EC50 that approximates it; bounds were set here for any values at or beyond the usual limits of such assays; settings: source organism: Staphylococcus aureus subsp. aureus N315
endpoint: pKd
Bear in mind: pKd is minus log10 of a mol/L concentration; give just that figure.

> print(dat)
   primary.sequence  endpoint  endpoint.result
1         HSNASTLLY       pKd             8.60

Kindly consider the entry below.
QUERY: Tell me the measured pKd of YTIGIGAFY , please.
RESULT: 8.82

---

molecular target: HLA-B*46:01; experiment: IEDB peptide-MHC binding, purified MHC/competitive/fluorescence; filed as Kd, often an IC50 or EC50 that approximates it; bounds were set here for any values at or beyond the usual limits of such assays; conditions: source organism: Giardia lamblia ATCC 50803
endpoint: Kd

QUERY: State the recorded Kd for this entry: RIYDPLWFQ
RESULT: ≥ 20 µM

---

target: HLA-A*03:01; experiment: IEDB peptide-MHC binding, purified MHC/competitive/radioactivity; filed as Kd, often an IC50 or EC50 that approximates it; bounds were set here for any values at or beyond the usual limits of such assays; settings: source organism: Vaccinia virus Copenhagen
endpoint: Kd (µM)
Dear colleague, please return just the value in µM, with no unit written.

QUERY: Request the reported Kd associated with ILNFLDWIK
RESULT: 0.189

---

target: HLA-B*45:06; experiment: IEDB peptide-MHC binding, purified MHC/competitive/fluorescence; filed as Kd, often an IC50 or EC50 that approximates it; bounds were set here for any values at or beyond the usual limits of such assays; details: source organism: Human herpesvirus 4 strain B95-8
endpoint: Kd

QUERY: State the recorded Kd for this entry: RRRRRRAAL
RESULT: ≥ 5 µM

---

molecular target: HLA-B*57:01; experiment: IEDB peptide-MHC binding, purified MHC/direct/fluorescence; filed as Kd, often an IC50 or EC50 that approximates it; bounds were set here for any values at or beyond the usual limits of such assays; conditions: source organism: Coxiella burnetii Q321
endpoint: Kd

QUERY: Quick one: Kd for DGAEGINPY ?
RESULT: ≥ 20 µM

---

target: HLA-B*51:01; test: IEDB peptide-MHC binding, purified MHC/competitive/radioactivity; filed as Kd, often an IC50 or EC50 that approximates it; bounds were set here for any values at or beyond the usual limits of such assays; settings: source organism: Mammarenavirus juninense
endpoint: Kd (nM)
Numeric only. Scale: nM

QUERY: For the sequence MPGVLSYVV , what Kd is on record?
RESULT: 208

---

target: HLA-B*08:02; assay: IEDB peptide-MHC binding, purified MHC/competitive/fluorescence; filed as Kd, often an IC50 or EC50 that approximates it; bounds were set here for any values at or beyond the usual limits of such assays; conditions: source organism: Escherichia coli str. K-12 substr. DH10B
endpoint: Kd

QUERY: Which measured Kd value corresponds to QVIFKCVPK ?
RESULT: ≥ 20 µM

---

target: HLA-B*07:02; assay: IEDB peptide-MHC binding, purified MHC/competitive/radioactivity; filed as Kd, often an IC50 or EC50 that approximates it; bounds were set here for any values at or beyond the usual limits of such assays; details: source organism: Dengue virus 1 Brazil/97-11/1997
endpoint: Kd (µM)
Output spec: scalar in µM, unitless text.

> print(dat)
   primary.sequence  endpoint  endpoint.result
1        MPVTVASAAQ        Kd            0.446

Next item in the queue.
QUERY: Consider the sequence LPQHLTLRAQ and give its measured Kd.
RESULT: 0.265

---

molecular target: HLA-A*23:01; assay: IEDB peptide-MHC binding, purified MHC/direct/fluorescence; filed as Kd, often an IC50 or EC50 that approximates it; bounds were set here for any values at or beyond the usual limits of such assays; details: source organism: Orthohantavirus tulaense
endpoint: Kd

QUERY: What value of measured Kd is listed for MSRKLHRYI ?
RESULT: ≥ 20 µM

---

Each entry below carries its reported Kd.
target: HLA-A*11:01; assay: IEDB peptide-MHC binding, purified MHC/competitive/radioactivity; filed as Kd, often an IC50 or EC50 that approximates it; bounds were set here for any values at or beyond the usual limits of such assays; settings: source organism: Dengue virus 4 Philippines/H241/1956
Output spec: scalar in nM, unitless text.

QUERY: // Kd lookup, key: ATTILTPMLR
RESULT: 129

QUERY: Recorded Kd of VVRPPFNMLK , please.
RESULT: 70.9

QUERY: // query Kd value for entry PVYLMTLMK
RESULT: 196

---

molecular target: HLA-B*14:02; experiment: IEDB peptide-MHC binding, purified MHC/competitive/fluorescence; bounds were set here for any values at or beyond the usual limits of such assays; conditions: source organism: Gorilla gorilla gorilla
endpoint: IC50

QUERY: Record request: IC50 value, item RYSHWTKL
RESULT: ≥ 20 µM

---

target: HLA-B*07:02; assay: IEDB peptide-MHC binding, purified MHC/direct/fluorescence; filed as Kd, often an IC50 or EC50 that approximates it; bounds were set here for any values at or beyond the usual limits of such assays; conditions: source organism: Hantavirus Monongahela-3
endpoint: Kd (µM)
Field format: number, assumed µM, no unit text.

QUERY: Kd for KARNIISPV ?
RESULT: 0.107

---

target: HLA-A*03:01; experiment: IEDB peptide-MHC binding, purified MHC/competitive/fluorescence; filed as Kd, often an IC50 or EC50 that approximates it; bounds were set here for any values at or beyond the usual limits of such assays; conditions: source organism: Influenza A virus H3N2
endpoint: pKd
FYI, pKd means -log10 of a concentration in mol per litre.

QUERY: Test system HLA-A*03:01; read-out pKd; what value for RLNPMHQLLR ?
RESULT: 6.09

---

molecular target: HLA-A*02:01; assay: IEDB peptide-MHC binding, purified MHC/competitive/radioactivity; filed as Kd, often an IC50 or EC50 that approximates it; bounds were set here for any values at or beyond the usual limits of such assays; conditions: source organism: Triticum aestivum
pKd: −log10 of the molar value.
endpoint: pKd

QUERY: Request body: readout pKd, system HLA-A*02:01, query QLQPFLQPQL . Return the value.
RESULT: ≤ 5.00

---

biological target: HLA-B*53:01; test: IEDB peptide-MHC binding, purified MHC/competitive/fluorescence; bounds were set here for any values at or beyond the usual limits of such assays; conditions: source organism: Gorilla gorilla gorilla
endpoint: IC50

QUERY: Recorded IC50 of RYSHWTKL , please.
RESULT: ≥ 20 µM

---

target: HLA-B*27:03; assay: IEDB peptide-MHC binding, purified MHC/competitive/fluorescence; filed as Kd, often an IC50 or EC50 that approximates it; bounds were set here for any values at or beyond the usual limits of such assays; settings: source organism: Escherichia coli 536
endpoint: Kd

QUERY: Item RAMDVYCHR has what recorded Kd?
RESULT: ≥ 20 µM
